Molecular target: Carboxylic ester hydrolase (Sus scrofa) (UniProt A0A286ZKB1)
Sequence (whole entry): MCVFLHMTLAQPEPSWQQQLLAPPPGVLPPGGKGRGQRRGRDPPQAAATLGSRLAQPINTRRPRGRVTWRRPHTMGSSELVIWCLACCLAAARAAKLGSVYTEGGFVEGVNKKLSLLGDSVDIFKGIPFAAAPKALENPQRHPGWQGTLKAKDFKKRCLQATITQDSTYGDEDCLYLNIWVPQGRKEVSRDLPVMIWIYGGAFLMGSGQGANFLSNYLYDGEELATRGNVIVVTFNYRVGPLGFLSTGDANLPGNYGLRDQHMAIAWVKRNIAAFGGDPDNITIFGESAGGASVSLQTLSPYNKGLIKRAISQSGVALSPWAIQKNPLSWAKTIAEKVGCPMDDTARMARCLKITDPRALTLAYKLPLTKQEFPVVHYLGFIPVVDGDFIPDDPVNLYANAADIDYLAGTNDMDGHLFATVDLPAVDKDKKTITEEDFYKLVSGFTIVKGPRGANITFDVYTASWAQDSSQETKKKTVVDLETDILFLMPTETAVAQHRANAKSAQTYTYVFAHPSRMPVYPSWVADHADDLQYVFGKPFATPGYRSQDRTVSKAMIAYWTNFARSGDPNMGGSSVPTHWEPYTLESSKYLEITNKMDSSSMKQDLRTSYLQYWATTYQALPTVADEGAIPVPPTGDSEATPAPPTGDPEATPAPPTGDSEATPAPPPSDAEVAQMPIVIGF
Experiment: Inhibition of porcine cholesterol esterase at 5 nM using para-nitrophenyl butyrate as substrate after 5 mins in presence of sodium taurocholate by spectrophotometric method relative to control
assay-metric: inhibition (%)

• O=c1cc(-c2cc(F)ccc2C(F)(F)F)oc2c1ccc1ccccc12 = 34
• CC(=O)Oc1ccc(-c2cc(=O)c3ccc4ccccc4c3o2)cc1 = 28
• Cc1ccc(-c2cc(=O)c3ccc4ccccc4c3o2)cc1 = 18
• CC(=O)Oc1cccc(-c2cc(=O)c3ccc4ccccc4c3o2)c1 = 27
• COc1ccc(-c2cc(=O)c3ccc4ccccc4c3o2)cc1OC = 14
• O=c1cc(-c2ccc(C(F)(F)F)cc2F)oc2c1ccc1ccccc12 = 43
• O=c1cc(-c2cccc(Cl)c2)oc2c1ccc1ccccc12 = 68
• O=c1cc(-c2ccc(Br)cc2)oc2c1ccc1ccccc12 = 59
• O=c1cc(-c2cccc(F)c2)oc2c1ccc1ccccc12 = 64
• COc1ccc(-c2cc(=O)c3ccc4ccccc4c3o2)c(OC)c1 = 12
• O=c1cc(-c2cccc(CCl)c2)oc2c1ccc1ccccc12 = 45
• O=c1cc(-c2cccc(Cl)c2Cl)oc2c1ccc1ccccc12 = 64
• O=c1cc(-c2ccc(F)cc2F)oc2c1ccc1ccccc12 = 66
• O=c1cc(-c2cc(F)ccc2F)oc2c1ccc1ccccc12 = 65
• O=c1cc(-c2cc(F)cc(C(F)(F)F)c2)oc2c1ccc1ccccc12 = 38
• O=c1cc(-c2ccc([N+](=O)[O-])cc2)oc2c1ccc1ccccc12 = 47
• O=c1cc(-c2cc(C(F)(F)F)cc(C(F)(F)F)c2)oc2c1ccc1ccccc12 = 28
• O=c1cc(-c2ccccc2Br)oc2c1ccc1ccccc12 = 66
• O=c1cc(-c2c(F)cccc2C(F)(F)F)oc2c1ccc1ccccc12 = 48
• O=c1cc(-c2cc([N+](=O)[O-])cc([N+](=O)[O-])c2)oc2c1ccc1ccccc12 = 54
• O=c1cc(-c2ccc(OC(F)(F)F)cc2)oc2c1ccc1ccccc12 = 26
• O=c1cc(-c2ccc(I)cc2)oc2c1ccc1ccccc12 = 53
• O=c1cc(-c2cccc([N+](=O)[O-])c2)oc2c1ccc1ccccc12 = 51

----------
target: Carboxylic ester hydrolase (Sus scrofa) (UniProt A0A286ZKB1); assay: Inhibition of porcine cholesterol esterase at 50 nM using para-nitrophenyl butyrate as substrate after 5 mins in presence of sodium taurocholate by spectrophotometric method relative to control
assay-metric: inhibition (%)

* O=c1cc(-c2ccc(F)cc2C(F)(F)F)oc2c1ccc1ccccc12 | 63
* O=c1cc(-c2ccc(C(F)(F)F)cc2)oc2c1ccc1ccccc12 | 56
* O=c1cc(-c2cc(C(F)(F)F)cc(C(F)(F)F)c2)oc2c1ccc1ccccc12 | 54
* O=c1cc(-c2ccc(F)c(C(F)(F)F)c2)oc2c1ccc1ccccc12 | 63
* O=c1cc(-c2cccc(OC(F)(F)F)c2)oc2c1ccc1ccccc12 | 44
* O=c1cc(-c2ccc(CCl)cc2)oc2c1ccc1ccccc12 | 66
* O=c1cc(-c2ccc(F)c(F)c2)oc2c1ccc1ccccc12 | 81
* O=c1cc(-c2ccccc2Br)oc2c1ccc1ccccc12 | 83
* O=c1cc(-c2ccccc2F)oc2c1ccc1ccccc12 | 89
* O=c1cc(-c2ccc(F)cc2)oc2c1ccc1ccccc12 | 79
* Cc1ccc(-c2cc(=O)c3ccc4ccccc4c3o2)cc1 | 34
* O=c1cc(-c2c(F)cccc2F)oc2c1ccc1ccccc12 | 92
* COc1ccc(-c2cc(=O)c3ccc4ccccc4c3o2)cc1 | 31
* O=c1cc(-c2ccc([N+](=O)[O-])cc2)oc2c1ccc1ccccc12 | 70
* CC(=O)Oc1cccc(-c2cc(=O)c3ccc4ccccc4c3o2)c1 | 55
* O=c1cc(-c2ccccc2I)oc2c1ccc1ccccc12 | 80
* O=c1cc(-c2cc(F)cc(F)c2)oc2c1ccc1ccccc12 | 100
* O=c1cc(-c2cc(F)ccc2C(F)(F)F)oc2c1ccc1ccccc12 | 63
* O=c1cc(-c2cccc(CCl)c2)oc2c1ccc1ccccc12 | 68
* O=c1cc(-c2ccccc2C(F)(F)F)oc2c1ccc1ccccc12 | 58
* COc1ccc(-c2cc(=O)c3ccc4ccccc4c3o2)cc1OC | 25
* O=c1cc(-c2cc(F)ccc2F)oc2c1ccc1ccccc12 | 86
* O=c1cc(-c2c(F)cccc2C(F)(F)F)oc2c1ccc1ccccc12 | 64
* O=c1cc(-c2cccc(Cl)c2)oc2c1ccc1ccccc12 | 85
* COc1ccc(-c2cc(=O)c3ccc4ccccc4c3o2)c(OC)c1 | 28
* O=c1cc(-c2cccc(Br)c2)oc2c1ccc1ccccc12 | 78
* O=c1cc(-c2ccc(Br)cc2)oc2c1ccc1ccccc12 | 77
* O=c1cc(-c2ccc(F)cc2F)oc2c1ccc1ccccc12 | 97
* O=c1cc(-c2cccc([N+](=O)[O-])c2)oc2c1ccc1ccccc12 | 78

----------
target: Carboxylic ester hydrolase (Sus scrofa) (UniProt A0A286ZKB1); assay: Inhibition of porcine cholesterol esterase at 5 nM using para-nitrophenyl butyrate as substrate after 5 mins in presence of sodium taurocholate by spectrophotometric method relative to control
Label 1 (yes) when inhibition >= 40%; otherwise 0 (no).

- O=c1cc(-c2ccccc2C(F)(F)F)oc2c1ccc1ccccc12: 0 (no)
- O=c1cc(-c2cc(F)cc(F)c2)oc2c1ccc1ccccc12: 1 (yes)
- O=c1cc(-c2cccc(OC(F)(F)F)c2)oc2c1ccc1ccccc12: 0 (no)
- O=c1cc(-c2ccc(F)c(C(F)(F)F)c2)oc2c1ccc1ccccc12: 0 (no)
- O=c1cc(-c2ccc(F)c(F)c2)oc2c1ccc1ccccc12: 1 (yes)
- O=c1cc(-c2cccc(Br)c2)oc2c1ccc1ccccc12: 1 (yes)
- O=c1cc(-c2ccccc2I)oc2c1ccc1ccccc12: 1 (yes)
- O=c1cc(-c2cccc(C(F)(F)F)c2)oc2c1ccc1ccccc12: 0 (no)
- CN(C)c1ccc(-c2cc(=O)c3ccc4ccccc4c3o2)cc1: 0 (no)
- O=c1cc(-c2ccc(C(F)(F)F)cc2)oc2c1ccc1ccccc12: 0 (no)
- O=c1cc(-c2ccc(F)cc2C(F)(F)F)oc2c1ccc1ccccc12: 0 (no)

----------
inhibition values by entry
Biological target: Carboxylic ester hydrolase (Sus scrofa) (UniProt A0A286ZKB1)
Sequence (whole entry): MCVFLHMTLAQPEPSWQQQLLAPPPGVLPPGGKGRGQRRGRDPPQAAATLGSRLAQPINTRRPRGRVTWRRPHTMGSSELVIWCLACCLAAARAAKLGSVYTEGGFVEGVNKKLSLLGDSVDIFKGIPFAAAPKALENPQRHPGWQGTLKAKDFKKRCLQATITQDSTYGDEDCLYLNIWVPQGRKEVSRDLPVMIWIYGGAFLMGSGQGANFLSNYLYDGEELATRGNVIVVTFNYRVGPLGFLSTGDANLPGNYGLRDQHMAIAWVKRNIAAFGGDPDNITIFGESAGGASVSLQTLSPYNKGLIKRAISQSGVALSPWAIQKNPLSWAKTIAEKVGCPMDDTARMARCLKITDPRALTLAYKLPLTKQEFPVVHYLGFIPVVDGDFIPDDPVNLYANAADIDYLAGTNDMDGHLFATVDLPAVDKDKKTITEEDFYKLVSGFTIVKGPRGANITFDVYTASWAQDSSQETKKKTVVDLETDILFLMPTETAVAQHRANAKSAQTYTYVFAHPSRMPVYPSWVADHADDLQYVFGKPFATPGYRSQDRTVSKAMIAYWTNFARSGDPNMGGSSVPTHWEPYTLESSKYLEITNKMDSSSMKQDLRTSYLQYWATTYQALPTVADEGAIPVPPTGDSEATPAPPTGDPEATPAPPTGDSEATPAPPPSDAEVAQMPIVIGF
Test: Inhibition of porcine cholesterol esterase at 25 nM using para-nitrophenyl butyrate as substrate after 5 mins in presence of sodium taurocholate by spectrophotometric method relative to control
assay-metric: inhibition (%)

• O=c1cc(-c2cc(F)ccc2F)oc2c1ccc1ccccc12 = 84
• O=c1cc(-c2ccccc2Br)oc2c1ccc1ccccc12 = 81
• O=c1cc(-c2cccc(C(F)(F)F)c2)oc2c1ccc1ccccc12 = 47
• O=c1cc(-c2ccc(Br)cc2)oc2c1ccc1ccccc12 = 76
• CC(=O)Oc1cccc(-c2cc(=O)c3ccc4ccccc4c3o2)c1 = 47
• COc1ccc(-c2cc(=O)c3ccc4ccccc4c3o2)cc1 = 28
